molecular target: UniProtKB P08684; assay: Inhibition of CYP3A4 in human liver microsomes assessed as midazolam conversion to 1'-hydroxy midazolam at 25 uM preincubated for 10 mins followed by NADPH addition measured after 15 mins by LC-MS/MS analysis relative to control; type: ADME; settings: probe midazolam
readoutName: inhibition at 0.25 h, 25 µM (%)
Please give a number only; it is taken to be in %.

Field inhibition at 0.25 h, 25 µM (UniProtKB P08684), entry "Fc1ccc2c(c1)c1c(n2CCCOc2ccc(Cl)cc2)CCNC1" : 50

----------
target: Cytochrome P450 3A4 (Homo sapiens, UniProt P08684); experiment: Inhibition of CYP3A4 in human liver microsomes assessed as testosterone conversion to 6-hydroxy testosterone preincubated for 10 mins followed by NADPH addition measured after 15 mins by LC-MS/MS analysis; assay type: ADME
Sequence (P08684 whole entry): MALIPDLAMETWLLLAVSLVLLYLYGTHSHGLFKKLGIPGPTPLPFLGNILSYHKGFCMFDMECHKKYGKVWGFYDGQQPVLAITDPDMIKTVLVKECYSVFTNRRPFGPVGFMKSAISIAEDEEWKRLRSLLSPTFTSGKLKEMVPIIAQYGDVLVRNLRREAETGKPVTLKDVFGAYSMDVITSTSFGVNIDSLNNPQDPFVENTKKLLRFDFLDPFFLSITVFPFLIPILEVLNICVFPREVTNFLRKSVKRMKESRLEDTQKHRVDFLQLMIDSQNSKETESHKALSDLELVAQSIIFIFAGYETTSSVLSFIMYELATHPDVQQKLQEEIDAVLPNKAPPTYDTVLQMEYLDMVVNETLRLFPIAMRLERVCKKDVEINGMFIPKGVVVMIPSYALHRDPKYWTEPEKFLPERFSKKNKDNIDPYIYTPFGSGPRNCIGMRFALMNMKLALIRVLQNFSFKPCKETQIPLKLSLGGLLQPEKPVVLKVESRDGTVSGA
readoutName: IC50 (µM)
Give the number; µM is assumed, so skip it.

// IC50 value for "Fc1ccc2c(c1)c1c(n2CCCOc2ccc(Cl)cc2)CCNC1" : 25
